System: RXF 393
TEST: NCI tumour cell line growth inhibition, 48 h
The source made the active and inactive calls. Cut-off read from the data, not from the text of the source: active = GI50 up to about 1.1 µM and inactive = higher.
MEASURED_QUANTITY: GI50

• COc1ccc(N2C(=O)C3c4[nH]c5ccc(F)cc5c4C4CCC(C(C)(C)C)CC4C3C2=O)cc1 (stereo unspecified) = > 10 µM (inactive)
• NC(=O)NCc1c(C(N)=O)ncn1Cc1ccccc1 = > 100 µM (inactive)
• Cc1ccccc1NC(=O)CC1C(=O)Nc2ccccc2[S+]1[O-] (stereo unspecified) = 26.6 µM (inactive)
• O=c1c2cc([N+](=O)[O-])ccc2[nH]n1Cc1ccccn1 = > 100 µM (inactive)
• Fc1cc(C2=Nn3c(COc4ccccc4Cl)nnc3S/C2=C\c2ccc(Cl)cc2)c(Cl)cc1Cl = 9.89 µM (inactive)
• CCOc1ccc(Nc2nc3c(s2)C(=O)c2ccccc2C3=O)cc1 = 12.8 µM (inactive)
